assay: Cytotoxicity against African green monkey Vero cells assessed as cell viability at 1000 ug/ml by MTT assay; type: cell-based; settings: chlorocebus sabaeus, read-out: Activity
viability at 1000 ug/ml vs 80%: less than gives 1.0; not less than gives 0.0.

Examples with answers:
O=C1CSC(c2ccc(Cl)cc2)N1CCN1CCOCC1 (configuration not stated) ... 1.0
Cc1ccc(C2SCC(=O)N2CCN2CCOCC2)cc1 (configuration not stated) ... 1.0
O=C1CSC(c2ccc(O)cc2)N1CCN1CCOCC1 (configuration not stated) ... 1.0
O=C1CSC(c2ccccc2[N+](=O)[O-])N1CCN1CCOCC1 (configuration not stated) ... 0.0
O=C1CSC(c2cccc([N+](=O)[O-])c2)N1CCN1CCOCC1 (configuration not stated) ... 0.0

Item O=C1CSC(c2ccc(F)cc2)N1CCN1CCOCC1 (configuration not stated) : viability at 1000 ug/ml beneath 80%, strictly?
0.0

Entry COc1ccc(C2SCC(=O)N2CCN2CCOCC2)cc1 (configuration not stated) please
0.0
